- System: Syrian golden hamster
- PROTOCOL DESCRIPTION: Antidyslipidemic activity in high fat diet-fed dyslipidemic syrian golden hamster model assessed as increase in serum ratio of serum HDL/total cholesterol level at 10 mg/kg, po administered once daily for 7 days relative to vehicle treated control
- Type: functional, Mesocricetus auratus
Decision: Activity beneath 90% gives yes (1); Activity meeting or exceeding 90% gives no (0).

Answered examples (5):
[
  {
    "SMILES STRING": "COc1ccc(CN/C=C2\\C=C(C=O)c3c(ccc4c(C)cc(=O)oc34)C2=O)cc1",
    "GROUP": "yes (1)"
  },
  {
    "SMILES STRING": "Cc1cc(=O)oc2c3c(ccc12)C(=O)/C(=C/NC1CCCCC1)C=C3C=O",
    "GROUP": "yes (1)"
  },
  {
    "SMILES STRING": "Cc1cc(=O)oc2c3c(ccc12)C(=O)/C(=C/NCCBr)C=C3C=O",
    "GROUP": "yes (1)"
  },
  {
    "SMILES STRING": "Cc1cc(=O)oc2c3c(ccc12)C(=O)/C(=C/NC12CC4CC(CC(C4)C1)C2)C=C3C=O",
    "GROUP": "no (0)"
  },
  {
    "SMILES STRING": "Cc1cc(=O)oc2c3c(ccc12)C(=O)/C(=C/NCC(C)(C)CO)C=C3C=O",
    "GROUP": "yes (1)"
  }
]

Continue with the compound presented below.
Task: I'd appreciate it if you could check whether COc1cccc(CN/C=C2\C=C(C=O)c3c(ccc4c(C)cc(=O)oc34)C2=O)c1 has Activity smaller than 90%.
Output: no (0)

---

- Tested on: Syrian golden hamster
- PROTOCOL DESCRIPTION: Antidyslipidemic activity in high fat diet-fed dyslipidemic syrian golden hamster model assessed as increase in serum ratio of serum HDL/total cholesterol level at 10 mg/kg, po administered once daily for 7 days relative to vehicle treated control
- Type: functional, Mesocricetus auratus
Measured Activity of individual entries
A number alone suffices; assume %.

# annotated cases, reported Activity shown
[
  {
    "SMILES STRING": "Cc1cc(=O)oc2c3c(ccc12)C(=O)/C(=C/NCCCl)C=C3C=O",
    "UNIT OF MEASURE": "%",
    "RESULT NUMBER": 9
  },
  {
    "SMILES STRING": "CC(C)c1c(C(=O)Nc2ccccc2)c(-c2ccccc2)c(-c2ccc(F)cc2)n1CC[C@@H](O)C[C@@H](O)CC(=O)O",
    "UNIT OF MEASURE": "%",
    "RESULT NUMBER": 83
  },
  {
    "SMILES STRING": "Cc1cc(=O)oc2c3c(ccc12)C(=O)/C(=C/Nc1ccccc1O)C=C3C=O",
    "UNIT OF MEASURE": "%",
    "RESULT NUMBER": 19
  },
  {
    "SMILES STRING": "Cc1cccc(C)c1N/C=C1\\C=C(C=O)c2c(ccc3c(C)cc(=O)oc23)C1=O",
    "UNIT OF MEASURE": "%",
    "RESULT NUMBER": 43
  }
]

Task: Dear colleague, please send me the reported Activity for Cc1cc(=O)oc2c3c(ccc12)C(=O)/C(=C/NCCCO)C=C3C=O when you can.
Output: 39
